Data provenance is patent US20080132505A1.

target under test: human cannabinoid CB2 receptor (Homo sapiens)
Sequence (P34972 whole entry): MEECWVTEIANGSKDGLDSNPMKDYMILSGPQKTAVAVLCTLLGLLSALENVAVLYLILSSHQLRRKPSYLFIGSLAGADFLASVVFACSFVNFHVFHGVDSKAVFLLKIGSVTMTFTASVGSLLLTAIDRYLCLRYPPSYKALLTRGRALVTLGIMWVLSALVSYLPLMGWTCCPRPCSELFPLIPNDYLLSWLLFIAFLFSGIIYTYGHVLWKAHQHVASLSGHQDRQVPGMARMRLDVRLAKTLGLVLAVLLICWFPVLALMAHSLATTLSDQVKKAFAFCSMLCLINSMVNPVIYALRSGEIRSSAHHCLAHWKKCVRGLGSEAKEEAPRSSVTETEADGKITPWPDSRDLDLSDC
procedure summary: Cannabinoid CB2 receptor agonist activity (yeast reporter assay, FDGlu fluorescence)
Type: cell-based
condition description: EC50 value at the cloned human cannabinoid CB2 receptor
pEC50: −log10 of the molar value.

| compound | pEC50 |
| --- | --- |
| O=C(NCC1CCSCC1)c1cnc(Nc2cccc(Cl)c2)nc1C(F)(F)F [Example 255] | 6.52 to 7.70 |
| CS(=O)(=O)N1CCN(C(=O)c2cnc(Nc3cccc(Cl)c3)nc2C(F)(F)F)CC1 [Example 79] | 6.00 to 6.52 |
| O=C(NCC1CCC1)c1cnc(Nc2ccc(F)cc2F)nc1C(F)(F)F [Example 223] | 6.52 to 7.70 |
| O=C(NCC1CCOCC1)c1cnc(Nc2ccc(Cl)cc2F)nc1C(F)(F)F [Example 99] | 6.00 to 6.52 |
| O=C(NCC1CCC1)c1cnc(Nc2ccc(OC(F)(F)F)c(Cl)c2)nc1C(F)(F)F [Example 193] | 6.52 to 7.70 |
| O=C(NCC1(O)CCCCC1)c1cnc(Nc2cccc(Br)c2)nc1C(F)(F)F [Example 165] | 6.52 to 7.70 |
| O=C(NCC1CC1)c1cnc(Nc2ccc(Cl)cc2Cl)nc1C(F)(F)F [Example 241] | 6.52 to 7.70 |
| O=C(NCc1ccc(F)cc1)c1cnc(Nc2ccc(Cl)cc2Cl)nc1C(F)(F)F [Example 365] | 6.52 to 7.70 |
| O=C(NCC1CCC1)c1cnc(Nc2ccc(C(F)(F)F)cc2Cl)nc1C(F)(F)F [Example 102] | 6.00 to 6.52 |
| COc1ccc(CNC(=O)c2cnc(Nc3cccc(Cl)c3)nc2C(F)(F)F)cc1 [Example 269] | 6.52 to 7.70 |
| O=C(NC1CCS(=O)(=O)CC1)c1cnc(Nc2ccc(Cl)cc2Cl)nc1C(F)(F)F [Example 220] | 6.52 to 7.70 |
| O=C(NCc1ccccc1)c1cnc(Nc2cccc(Br)c2)nc1C(F)(F)F [Example 278] | 6.52 to 7.70 |
| Cc1ccc(Nc2ncc(C(=O)NCC3CCCCC3)c(C(F)(F)F)n2)c(Cl)c1 [Example 244] | 6.52 to 7.70 |
| N#Cc1ccc(Nc2ncc(C(=O)NCc3ccccc3)c(C(F)(F)F)n2)cc1 [Example 292] | 6.52 to 7.70 |
| N#Cc1ccc(Nc2ncc(C(=O)NCC3CCCCC3)c(C(F)(F)F)n2)c(Cl)c1 [Example 237] | 6.52 to 7.70 |
| O=C(NCC1CCOCC1)c1cnc(Nc2ccc(Cl)cc2Cl)nc1C(F)(F)F [Example 34] | 6.52 to 7.70 |
| O=C(NCC1CCOCC1)c1cnc(Nc2c(Cl)cccc2Cl)nc1C(F)(F)F [Example 55] | 6.52 to 7.70 |

---

target under test: UniProt P34972
procedure summary: Cannabinoid CB2 receptor agonist activity (yeast reporter assay, FDGlu fluorescence)
Type: cell-based
condition description: EC50 value at the cloned human cannabinoid CB2 receptor
EC50 listing for selected compounds.

| compound | EC50 |
| --- | --- |
| O=C(c1cnc(Nc2ccccc2)nc1C(F)(F)F)N1CCOCC1 [Example 25] | 0.3 to 1 µM |
| O=C(NCC1CCOCC1)c1cnc(Nc2ccc(Cl)c(Cl)c2)nc1C(F)(F)F [Example 250] | 0.02 to 0.3 µM |
| O=C(NCC1(O)CCOCC1)c1cnc(Nc2cccc(Br)c2)nc1C(F)(F)F [Example 87] | 0.3 to 1 µM |
| O=C(NCc1ccncc1)c1cnc(Nc2ccc(Cl)cc2Cl)nc1C(F)(F)F [Example 282] | 0.02 to 0.3 µM |
| N#Cc1cc(Nc2ncc(C(=O)NCC3CCOCC3)c(C(F)(F)F)n2)ccc1Cl [Example 111] | 0.3 to 1 µM |
| O=C(NCC1CCC1)c1cnc(Nc2ccc(Cl)c(Cl)c2)nc1C(F)(F)F [Example 204] | 0.02 to 0.3 µM |
| O=C(NCc1ccccc1)c1cnc(Nc2cccc(Cl)c2)nc1C(F)(F)F [Example 266] | 0.02 to 0.3 µM |
| O=C(NCc1ccccc1)c1cnc(Nc2cccc(F)c2)nc1C(F)(F)F [Example 277] | 0.02 to 0.3 µM |
| O=C(NCC1CCCCC1)c1cnc(Nc2ccc(F)c(Cl)c2)nc1C(F)(F)F [Example 166] | 0.02 to 0.3 µM |
| O=C(NCC1CCCCC1)c1cnc(Nc2ccc(Cl)cc2Cl)nc1C(F)(F)F [Example 16] | 0.02 to 0.3 µM |
| CSc1c(Nc2ncc(C(=O)NCC3CCOCC3)c(C(F)(F)F)n2)cccc1C(F)(F)F [Example 182] | 0.02 to 0.3 µM |
| Cc1cc(Cl)ccc1Nc1ncc(C(=O)NCC2CCOCC2)c(C(F)(F)F)n1 [Example 112] | 0.3 to 1 µM |
| O=C(NCC1CCOCC1)c1cnc(Nc2cccc(C(F)(F)F)c2F)nc1C(F)(F)F [Example 181] | 0.02 to 0.3 µM |
| O=C(NCC1CCCCC1)c1cnc(Nc2ccc(Cl)cc2F)nc1C(F)(F)F [Example 226] | 0.02 to 0.3 µM |
| COc1cccc(Nc2ncc(C(=O)NCC3CCOCC3)c(C(F)(F)F)n2)c1 [Example 37] | 0.02 to 0.3 µM |
| O=C(NCC1CCC1)c1cnc(Nc2cccc(F)c2)nc1C(F)(F)F [Example 198] | 0.02 to 0.3 µM |
| O=C(NC1CCCC1)c1cnc(Nc2cccc(Cl)c2Cl)nc1C(F)(F)F [Example 77] | 0.3 to 1 µM |
| O=C(NCc1ccnc(F)c1)c1cnc(Nc2ccc(Cl)c(Cl)c2)nc1C(F)(F)F [Example 357] | 0.02 to 0.3 µM |

---

The entries below are paired with their reported EC50.
target under test: human cannabinoid CB2 receptor (Homo sapiens)
procedure summary: Cannabinoid CB2 receptor agonist activity (yeast reporter assay, FDGlu fluorescence)
Format: cell-based
condition description: EC50 value at the cloned human cannabinoid CB2 receptor

| smiles repr | target under test | EC50 |
| --- | --- | --- |
| O=C(NCC1CCCCC1)c1cnc(Nc2ccc(Cl)c(Cl)c2)nc1C(F)(F)F | human cannabinoid CB2 receptor (Homo sapiens) | 0.02 to 0.3 µM |
| O=C(NCC1CCOCC1)c1cnc(Nc2ccc(C(F)(F)F)cc2Cl)nc1C(F)(F)F | human cannabinoid CB2 receptor (Homo sapiens) | 0.02 to 0.3 µM |
| O=C(NCC1CCCCC1)c1cnc(Nc2ccc(F)cc2C(F)(F)F)nc1C(F)(F)F | human cannabinoid CB2 receptor (Homo sapiens) | 0.3 to 1 µM |
| O=C(NCC1CCCCC1)c1cnc(Nc2cc(Cl)cc(Cl)c2)nc1C(F)(F)F | human cannabinoid CB2 receptor (Homo sapiens) | 0.02 to 0.3 µM |
| O=C(NCC1CCC1)c1cnc(Nc2cccc(C(F)(F)F)c2F)nc1C(F)(F)F | human cannabinoid CB2 receptor (Homo sapiens) | 0.02 to 0.3 µM |
| O=C(NCc1ccnc(F)c1)c1cnc(Nc2cccc(Br)c2)nc1C(F)(F)F | human cannabinoid CB2 receptor (Homo sapiens) | 0.02 to 0.3 µM |
| O=C(NCC1CCC1)c1cnc(Nc2ccc(Cl)cc2Br)nc1C(F)(F)F | human cannabinoid CB2 receptor (Homo sapiens) | 0.02 to 0.3 µM |
| O=C(NCC1CCC1)c1cnc(Nc2ccc(Br)cc2C(F)(F)F)nc1C(F)(F)F | human cannabinoid CB2 receptor (Homo sapiens) | 0.3 to 1 µM |

---

# pEC50 per entry
target under test: UniProt P34972
procedure summary: Cannabinoid CB2 receptor agonist activity (yeast reporter assay, FDGlu fluorescence)
Format: cell-based
condition description: EC50 value at the cloned human cannabinoid CB2 receptor
pEC50: −log10 of the molar value.
measured parameter: pEC50

| smiles repr | obs value |
| --- | --- |
| O=C(NCc1ccccc1)c1cnc(Nc2cccc(Cl)c2Cl)nc1C(F)(F)F | 6.00 to 6.52 |
| O=C(NCC1CCC1)c1cnc(Nc2cccc(Cl)c2Cl)nc1C(F)(F)F | 6.52 to 7.70 |
| Cc1cccc(Nc2ncc(C(=O)NCC3CCCCC3)c(C(F)(F)F)n2)c1Cl | 6.00 to 6.52 |
| O=C(NCc1ccnc(F)c1)c1cnc(Nc2cccc(F)c2)nc1C(F)(F)F | 6.52 to 7.70 |
| O=C(NC1CCC1)c1cnc(Nc2cccc(Cl)c2)nc1C(F)(F)F | 6.52 to 7.70 |
| N#Cc1ccc(Nc2ncc(C(=O)NCC3CCCC3)c(C(F)(F)F)n2)cc1Cl | 6.52 to 7.70 |
| O=C(NCC1CCC1)c1cnc(Nc2ccc(F)cc2Cl)nc1C(F)(F)F | 6.52 to 7.70 |
| COc1cccc(Nc2ncc(C(=O)NCc3ccncc3)c(C(F)(F)F)n2)c1 | 6.52 to 7.70 |
| O=C(NCC1CCOCC1)c1cnc(Nc2cccc(Br)c2)nc1C(F)(F)F | 6.52 to 7.70 |
| O=C(NC1CCC1)c1cnc(Nc2cccc(F)c2)nc1C(F)(F)F | 6.00 to 6.52 |
| O=C(NCC1CCCC1)c1cnc(Nc2cccc(F)c2)nc1C(F)(F)F | 6.52 to 7.70 |
| O=C(NCC1CCCCC1)c1cnc(Nc2cccc(C(F)(F)F)c2F)nc1C(F)(F)F | 6.52 to 7.70 |
| N#CCNC(=O)c1cnc(Nc2cccc(Cl)c2)nc1C(F)(F)F | 6.00 to 6.52 |
| O=C(NC1CCC1)c1cnc(Nc2ccc(Cl)cc2Cl)nc1C(F)(F)F | 6.52 to 7.70 |
| O=C(NCC1CCCCC1)c1cnc(Nc2cccc(F)c2)nc1C(F)(F)F | 6.52 to 7.70 |
| O=C(c1cnc(Nc2cccc(Cl)c2)nc1C(F)(F)F)N1CCOCC1 | 6.52 to 7.70 |
| O=C(NCc1ccc(F)cc1F)c1cnc(Nc2cccc(Cl)c2)nc1C(F)(F)F | 6.52 to 7.70 |
| O=C(NCC1CCOCC1)c1cnc(Nc2cc(Br)cc(C(F)(F)F)c2)nc1C(F)(F)F | 6.52 to 7.70 |
| O=C(NCC1CCOCC1)c1cnc(Nc2ccc(Br)cc2F)nc1C(F)(F)F | 6.52 to 7.70 |
| Cc1ccc(Cl)cc1Nc1ncc(C(=O)NCC2CCC2)c(C(F)(F)F)n1 | 6.00 to 6.52 |
| O=C(NCC1CCCCC1)c1cnc(Nc2ccc(Cl)cc2C(F)(F)F)nc1C(F)(F)F | 6.52 to 7.70 |
| CC(C)(C)CCNC(=O)c1cnc(Nc2cccc(Cl)c2)nc1C(F)(F)F | 6.00 to 6.52 |
| CC(C)(C)CNC(=O)c1cnc(Nc2cccc(Cl)c2)nc1C(F)(F)F | 6.00 to 6.52 |
| CN(CC1CCC1)C(=O)c1cnc(Nc2cccc(Cl)c2)nc1C(F)(F)F | 6.52 to 7.70 |
| O=C(NCC1CCCC1)c1cnc(Nc2ccc(Cl)cc2Cl)nc1C(F)(F)F | 6.52 to 7.70 |
| O=C(NCc1ccc(Cl)cc1)c1cnc(Nc2cccc(Cl)c2)nc1C(F)(F)F | 6.00 to 6.52 |
| O=C(NCC1CCCC1)c1cnc(Nc2cc(Cl)ccc2Cl)nc1C(F)(F)F | 6.52 to 7.70 |
| CN(Cc1ccccc1)C(=O)c1cnc(Nc2cccc(Cl)c2)nc1C(F)(F)F | 6.52 to 7.70 |
| O=C(NCC1CCCC1)c1cnc(Nc2c(Cl)cccc2Cl)nc1C(F)(F)F | 6.52 to 7.70 |
| Cc1c(Cl)cccc1Nc1ncc(C(=O)NCC2CCOCC2)c(C(F)(F)F)n1 | 6.52 to 7.70 |
| O=C(NCC1CCCC1)c1cnc(Nc2cccc(Cl)c2)nc1C(F)(F)F | 6.52 to 7.70 |
| O=C(NCC1CCCCC1)c1cnc(Nc2cccc(Cl)c2F)nc1C(F)(F)F | 6.52 to 7.70 |
| O=C(NCC1CCCC1)c1cnc(Nc2ccc(Cl)c(Cl)c2)nc1C(F)(F)F | 6.52 to 7.70 |
| O=C(NCc1ccccc1)c1cnc(Nc2ccc(Cl)cc2Cl)nc1C(F)(F)F | 6.52 to 7.70 |
| O=C(NCC1CCOCC1)c1cnc(Nc2ccc(F)cc2Cl)nc1C(F)(F)F | 6.52 to 7.70 |
